Source of measurements: PubChem BioAssay (NCI)

Reported values of TGI for individual entries
Test system: OVCAR-3 ovarian
Experiment: NCI tumour cell line growth inhibition, 48 h
Please reply with the bare figure in µM and do not write the unit itself.

Known TGI results, listed for orientation:
MOLECULE	UNITS TEXT	TGI
CCCCCCC1N=C(N)N=C(N)N1c1ccc(Cl)cc1 (centres undefined)	µM	32.6
CO[C@@]12CC(=O)/C(=C(O)\C=C\c3ccccc3)C(=O)[C@]1(OC)Cc1ccccc1O2	µM	55.9

What value of measured TGI is listed for "COc1ccc(C(=O)c2ccc(-n3c4ccccc4c4ccc5c(c43)C(=O)C=CC5=O)cc2)cc1" ?
2.68

What do you have for "O=C(CCc1cccc(O)c1)NCCc1cccc(OCc2ccccc2)c1" ?
26

* * *

System: OVCAR-5 ovarian
Assay: NCI tumour cell line growth inhibition, 48 h
MEASURED QUANTITY: GI50

Test system OVCAR-5 ovarian; read-out GI50; what value for "ClC1=C(Cl)C(Cl)=C(Cl)C1=Cc1ccc(Cl)cc1" ?
705 nM

What do you have for "COC(=O)Nc1nc2ccc(Sc3ccccc3)cc2[nH]1" ?
511 nM

What do you have for "CN(NC(=O)CC(=O)NN(C)C(=S)c1ccc(Cl)cc1)C(=S)c1ccc(Cl)cc1" ?
25900 nM

* * *

Tested on: PC-3 prostate
Test: NCI tumour cell line growth inhibition, 48 h; in the data active means GI50 below about 0.43 µM; inactive means the rest
Assign a class; possible classes are true = active, false = inactive

MOLECULE	LABEL VALUE
COC(=O)Nc1nc2ccc(Sc3ccccc3)cc2[nH]1	true
CC(=O)OCC(=O)C1(O)C(C)CC2C3C=C(C)C4=Cc5c(cnn5-c5ccccc5)CC4(C)C3C(O)CC21C (stereo not given)	false

Hi, sorry to bother you, what did the test record for "CCc1ccccc1-n1c(N)c(C#N)c(-c2ccc(OC)c(OC)c2)c(C#N)c1=O" ?
false

What do you have for "CC[C@H](C)[C@H](NC(=O)C12CC(NC(C)=O)(C1)C2)C(=O)N(C)[C@H](C[C@@H](OC(C)=O)c1nc(C(=O)N[C@@H](Cc2ccccc2)C[C@H](C)C(=O)OC)cs1)C(C)C" ?
true

What do you have for "Cc1sc(/N=C2/NC(=O)CS2)nc1-c1nc(/N=C2/NC(=O)CS2)sc1C" ?
false

* * *

Test system: HL-60(TB) leukemia
Assay: NCI tumour cell line growth inhibition, 48 h
MEASURED QUANTITY: TGI (µM)
Please reply with the bare figure in µM and do not write the unit itself.

Known TGI results, listed for orientation:
COMPOUND	STUDY TARGET	TGI [µM]
COc1ccc2[nH]c3c(C)c4cnccc4c(C)c3c2c1	HL-60(TB) leukemia	4.64
COc1cc(NCc2ccc3n2-c2ccccc2OC3)cc(OC)c1OC	HL-60(TB) leukemia	57.2
CC(C)NC(=O)O/N=C1\CCC2[C@@H]3CC=C4C[C@@H](OC(=O)NC(C)C)CC[C@]4(C)C3CC[C@]12C (stereo partly specified)	HL-60(TB) leukemia	5.37
O=C(CC1(O)C(=O)Nc2c(Cl)ccc(Cl)c21)c1ccc(C2CC2)cc1 (stereo unspecified)	HL-60(TB) leukemia	10.3
Nc1ccc(C(=O)NN2C(=O)C(Cl)C2c2cccc([N+](=O)[O-])c2)cc1 (stereo unspecified)	HL-60(TB) leukemia	41.4

What value of measured TGI is listed for "O=c1[nH]c2c(O)cccc2c2cc3c(c(O)c12)OCO3" ?
31.1

What do you have for "O=c1cc(-c2nc3ccccc3[nH]2)[nH]c2nc(-c3nc4ccccc4[nH]3)cc(-c3ccc(Cl)cc3)c12" ?
66.3

What do you have for "CO[C@H](c1ccccc1)[C@H](C)N(C)c1ccc2ccccc2c1C1=NC(C)(C)CO1" ?
61.3

What do you have for "CC1=NN(c2ccccc2)C(=O)C1=C1SCCCS1" ?
41.9

* * *

System: SF-295 CNS
Experiment: NCI tumour cell line growth inhibition, 48 h
Reported values of log10(TGI) for individual entries
Base-10 log of TGI, unit µM.

Known log10(TGI) results, listed for orientation:
> print(dat)
                                   compound   val
1  CC1(C)CC2CC(C)(CN2c2ncnc3ccc(Br)cc23)C1 (stereo not given)  1.21
2  Cc1cc(-c2nc3cc(F)ccc3s2)ccc1NC(=O)C(C)N (stereo not given)  0.90
3  Cc1cccnc1CNC1CC(NCc2ncccc2C)CC(NCc2ncccc2C)C1 (stereo not given)  0.93
4  C=C1C(=O)OC2/C=C(\C)CC(O)/C=C(/CO)CC(OC(=O)/C(C)=C/C)C12 (stereo not given)  2.60

Next up:
Test system SF-295 CNS; read-out log10(TGI); what value for CCCCCCC1N=C(N)N=C(N)N1c1ccc(Cl)cc1 (stereo not given) ?
1.25

* * *

Reported values of GI50 for individual entries
Test system: CAKI-1 renal
Experiment: NCI tumour cell line growth inhibition, 48 h

Known GI50 results, listed for orientation:
COMPOUND	VAL
COc1cccc(Nc2nccc(Nc3ccc4[nH]ncc4c3)n2)c1	993 nM
CC[C@H](C)[C@H](NC(=O)C12CC(NC(C)=O)(C1)C2)C(=O)N(C)[C@H](C[C@@H](OC(C)=O)c1nc(C(=O)N[C@@H](Cc2ccccc2)C[C@H](C)C(=O)OC)cs1)C(C)C	11200 nM

What value of measured GI50 is listed for "CC(C)CNc1nc(N=[N+]=[N-])nc(NCC(C)C)n1" ?
> 10000 nM

What do you have for "CC(=O)/C=C/C1=C(c2ccsc2)c2ccccc2CC1" ?
27700 nM

What do you have for "C[C@@H]1CN2[C@H]3[C@@H]1CC[C@]31CCC(=O)O[C@]1(C)[C@@H]1CC[C@H]3CCC=C3[C@@H]12" ?
> 70000 nM

What do you have for CC(=O)OCC(=O)C1(O)C(C)CC2C3C=C(C)C4=Cc5c(cnn5-c5ccccc5)CC4(C)C3C(O)CC21C (configuration not stated) ?
2350 nM

* * *

Tested on: IGROV1 ovarian
Test: NCI tumour cell line growth inhibition, 48 h
MEASURED QUANTITY: TGI (µM)
Please reply with the bare figure in µM and do not write the unit itself.

Known TGI results, listed for orientation:
> print(dat)
                                   molecule    study.target   val
1          CCOC(=O)C(Cc1ccc(OC)cc1)C(=O)OCC  IGROV1 ovarian  14.3
2  O=[N+]([O-])c1ccc(-c2ccccc2)c([As](=O)(O)O)c1  IGROV1 ovarian  27.8
3  CSc1ccc(C2=NN(C(=O)c3ccc(N)cc3)C(c3ccc(F)cc3)C2)cc1 (stereo not given)  IGROV1 ovarian  25.5

What value of measured TGI is listed for "CC(C)(C)c1cc(C(C)(C)C)c2sc(=S)oc2c1O" ?
24.6

What do you have for "Cc1cc2nc3c4ccccc4n(CCN(C)C)c3nc2cc1C" ?
10.2

What do you have for "CNCCOc1nc2c3cnccc3cc(-c3cc(OC)c(OC)c(OC)c3)c2c2ccncc12" ?
0.357

What do you have for "N#CSCC(=O)c1ccc(Cl)cc1" ?
6.6

What do you have for CC12OC3CC(O1)C1(C=O)C4CCC5(C)C(c6ccc(=O)oc6)CCC5(O)C4CCC1(C3)O2 (stereo not given) ?
2.44

What do you have for "COc1ccc2c(c1)c1c3c(ccc4ncn2c43)N(CCN(C)C)CCN=1" ?
4.37

What do you have for "C=C1CO[C@@H]2C[C@@H]1CC/C(C)=C/CC/C(C)=C/CC[C@@]2(C)O" ?
28.8

* * *

Reported values of TGI for individual entries
Test system: HCT-116 colon
Assay: NCI tumour cell line growth inhibition, 48 h

> print(dat)
                                   compound  measured.quantity        val
1  N#CC(c1ccccc1)N(CCc1ccccc1)C(=O)Oc1ccccc1 (centres undefined)                TGI   > 100 µM
2  CS(=O)(=O)OCc1c(O)c2c(c(O)c1COS(C)(=O)=O)C(=O)C=CC2=O                TGI   > 100 µM
3  C=C(C)[C@@H]1CC[C@]2(C)[C@H](C=CC3=C4C[C@@](C)(CO)CC[C@]4(C)CC[C@]32C)[C@@]1(C)CCCN                TGI    3.21 µM
4  FC(F)(F)C1=NC(=NNc2nnc(-c3ccccc3)c(-c3ccccc3)n2)N=C(C(F)(F)F)C1                TGI  > 93.6 µM
5  CCCCCC(=O)Cc1cc(OC)cc2c1C(=O)Oc1cc(O)c(C(=O)O)c(CC(=O)CCCCC)c1O2                TGI    71.2 µM
6  CC(=O)OCC(=O)C1(O)C(C)CC2C3C=C(C)C4=Cc5c(cnn5-c5ccccc5)CC4(C)C3C(O)CC21C (centres undefined)                TGI    3.12 µM
7  O=S(Cc1cc2c(cc1Br)OCO2)c1ccccc1 (centres undefined)                TGI   > 100 µM
8  C[C@]12CC[C@H](O)CC1=CC[C@@H]1[C@@H]2CC[C@]2(C)C(=O)CC[C@@H]12                TGI   > 100 µM

Next up:
What value of measured TGI is listed for "CC(=O)/C=C/C1=C(c2ccsc2)c2ccccc2CC1" ?
50.3 µM
